test-context: in n-octanol, 313.15 K

>  <molecule>
CC12CC3CC(C)(C1)CC(NS(=O)(=O)c1ccc([N+](=O)[O-])cc1)(C3)C2

>  <solubility (mole fraction)>
0.00664

$$$$
>  <molecule>
Cc1cc(C)c(S(=O)(=O)NC23CC4CC(CC(C4)C2)C3)c(C)c1

>  <solubility (mole fraction)>
0.00809

$$$$

###

test-context: in n-hexane, 308.15 K
solubility (mole fraction) listing for selected compounds.

>  <molecule>
CC12CC3CC(C)(C1)CC(NS(=O)(=O)c1ccc([N+](=O)[O-])cc1)(C3)C2

>  <solubility (mole fraction)>
8.55e-05

$$$$
>  <molecule>
Cc1cc(C)c(S(=O)(=O)NC23CC4CC(CC(C4)C2)C3)c(C)c1

>  <solubility (mole fraction)>
0.000444

$$$$

###

Reported solubility (mole fraction) values for a set of molecules
test-context: in n-octanol, 308.15 K

>  <molecule>
Cc1cc(C)c(S(=O)(=O)NC23CC4CC(CC(C4)C2)C3)c(C)c1

>  <solubility (mole fraction)>
0.0068

$$$$
>  <molecule>
CC12CC3CC(C)(C1)CC(NS(=O)(=O)c1ccc([N+](=O)[O-])cc1)(C3)C2

>  <solubility (mole fraction)>
0.0058

$$$$

These data points were gathered from BigSolDB 2.1.
